# assay_target: UGT1A1 (Homo sapiens, UniProt P22309)
# Sequence (P22309 26-533): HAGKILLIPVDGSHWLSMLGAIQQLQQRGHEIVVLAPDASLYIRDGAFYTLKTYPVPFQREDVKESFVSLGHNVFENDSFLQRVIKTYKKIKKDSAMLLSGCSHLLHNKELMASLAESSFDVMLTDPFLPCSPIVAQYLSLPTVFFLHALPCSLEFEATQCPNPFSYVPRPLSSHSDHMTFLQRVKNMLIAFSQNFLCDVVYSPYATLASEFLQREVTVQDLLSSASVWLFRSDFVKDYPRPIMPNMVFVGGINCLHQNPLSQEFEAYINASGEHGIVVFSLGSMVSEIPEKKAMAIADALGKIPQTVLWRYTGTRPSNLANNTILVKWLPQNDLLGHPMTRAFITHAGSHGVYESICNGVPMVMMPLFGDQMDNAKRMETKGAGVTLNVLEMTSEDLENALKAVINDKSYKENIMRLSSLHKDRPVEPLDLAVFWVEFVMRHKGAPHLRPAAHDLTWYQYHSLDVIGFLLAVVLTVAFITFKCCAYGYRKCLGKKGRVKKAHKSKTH
# test_name: Ki determination on UGT1A1 activity (β-estradiol-3-glucuronidation) in human liver microsomes
# assay_context: read-out: Ki against UGT1A1-catalyzed β-estradiol-3-glucuronidation, β-estradiol 5, 10 and 20 μM, nonlinear regression
assay_readout: Ki (µM)

[
  {
    "compound": "CC1=C(/C=C/C(C)=C/C=C/C(C)=C/C=C/C=C(C)/C=C/C=C(C)/C=C/C2=C(C)C[C@@H](O)CC2(C)C)C(C)(C)CCC1 [βC, β-cryptoxanthin]",
    "assay_readout": "Ki",
    "quantitative_readout": 12.2
  }
]

* * *

# assay_target: UGT1A6 (Homo sapiens)
# Construct: pooled human liver microsomes (final concentration 0.25 mg/mL); tissue Corning Life Sciences; host or cells: pooled human liver microsomes, 150 donors
# Sequence (P19224 27-532): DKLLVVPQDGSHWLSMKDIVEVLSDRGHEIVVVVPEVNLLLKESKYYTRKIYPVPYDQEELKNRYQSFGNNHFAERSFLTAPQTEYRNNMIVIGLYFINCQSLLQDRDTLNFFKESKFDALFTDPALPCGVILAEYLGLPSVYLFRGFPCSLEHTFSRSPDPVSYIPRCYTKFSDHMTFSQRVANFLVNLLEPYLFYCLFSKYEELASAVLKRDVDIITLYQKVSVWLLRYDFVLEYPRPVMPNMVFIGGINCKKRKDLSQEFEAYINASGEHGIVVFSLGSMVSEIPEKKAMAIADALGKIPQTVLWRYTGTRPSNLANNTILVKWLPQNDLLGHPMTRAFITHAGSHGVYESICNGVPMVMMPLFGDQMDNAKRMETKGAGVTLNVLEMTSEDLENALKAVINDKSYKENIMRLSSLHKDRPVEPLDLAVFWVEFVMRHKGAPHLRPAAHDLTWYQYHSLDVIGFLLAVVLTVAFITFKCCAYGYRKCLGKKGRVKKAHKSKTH
# test_name: Inhibition of UGT1A6 (serotonin-O-glucuronidation) in human liver microsomes
# Type: in vitro ADME
# assay_context: 4000 μM serotonin, mean ± SD of triplicate, read-out: IC50 towards UGT1A6
Measured IC50, listed per entry.

[
  {
    "smiles_code": "CC1=C(/C=C/C(C)=C/C=C/C(C)=C/C=C/C=C(C)/C=C/C=C(C)/C=C/C2=C(C)C(=O)CCC2(C)C)C(C)(C)CCC1=O",
    "IC50": "> 50 µM"
  },
  {
    "smiles_code": "CC1=C(/C=C/C(C)=C/C=C/C(C)=C/C=C/C=C(C)/C=C/C=C(C)/C=C/C2=C(C)C[C@@H](O)CC2(C)C)C(C)(C)CCC1",
    "IC50": "> 50 µM"
  }
]

* * *

# assay_target: UGT2B15 (Homo sapiens)
# Construct: purchased Corning Life Sciences
# Sequence (P54855 24-530): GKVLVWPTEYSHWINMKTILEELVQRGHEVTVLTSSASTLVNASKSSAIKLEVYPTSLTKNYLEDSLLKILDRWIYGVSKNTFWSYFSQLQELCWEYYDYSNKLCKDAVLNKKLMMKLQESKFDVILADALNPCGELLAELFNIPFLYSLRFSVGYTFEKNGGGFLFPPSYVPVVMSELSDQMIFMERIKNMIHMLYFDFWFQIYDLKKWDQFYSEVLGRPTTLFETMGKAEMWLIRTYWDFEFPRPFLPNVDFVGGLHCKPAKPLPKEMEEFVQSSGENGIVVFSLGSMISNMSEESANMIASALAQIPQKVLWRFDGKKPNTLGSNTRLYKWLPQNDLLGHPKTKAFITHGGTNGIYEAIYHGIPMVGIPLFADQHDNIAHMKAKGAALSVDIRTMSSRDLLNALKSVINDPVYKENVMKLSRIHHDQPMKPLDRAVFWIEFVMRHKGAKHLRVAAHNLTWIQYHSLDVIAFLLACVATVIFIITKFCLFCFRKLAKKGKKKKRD
# test_name: Inhibition of UGT2B15 (4-methylumbelliferyl glucuronidation) in recombinant human UGT2B15 supersomes
# Format: in vitro ADME
# assay_context: recombinant UGT2B15 supersomes, 250 μM 4-methylumbelliferone, mean ± SD of triplicate; read-out: IC50 towards UGT2B15
pIC50: −log10 of the molar value.
assay_readout: pIC50

[
  {
    "molecule": "CC1=C(/C=C/C(C)=C/C=C/C(C)=C/C=C/C=C(C)/C=C/C=C(C)/C=C/C2=C(C)C[C@@H](O)CC2(C)C)C(C)(C)CCC1",
    "assay_target": "UGT2B15 (Homo sapiens)",
    "result": "< 4.30"
  },
  {
    "molecule": "CC1=C(/C=C/C(C)=C/C=C/C(C)=C/C=C/C=C(C)/C=C/C=C(C)/C=C/C2=C(C)C(=O)CCC2(C)C)C(C)(C)CCC1=O",
    "assay_target": "UGT2B15 (Homo sapiens)",
    "result": "< 4.30"
  },
  {
    "molecule": "CN(C)CCC=C1c2ccccc2CCc2ccccc21 [Amitriptyline, amitriptyline, reference compound]",
    "assay_target": "UGT2B15 (Homo sapiens)",
    "result": 4.16
  }
]

Hello, the source for this data is paper PMC6272861, in case you need it.
